ASSAY_SUMMARY: AUCinfinity in Sprague-Dawley rat at 1 mg/kg, iv by LC-MS/MS analysis
Assay type: ADME, organism-based
Set-up: dose 1 mg/kg, route intravenous, time infinity
RUN_PARAMETERS: in vivo
VALUE_KIND: AUC(0-inf) (ng·h/mL)
The figure you give is taken to be in ng·h/mL; do not add the unit.

-- ask Report AUC(0-inf), nothing else, for this compound: CNC(=O)c1cccc2cc(Oc3ccnc(NC(=O)c4ccc(N5CCN(C)CC5)cc4)c3)ccc12
-- reply 49

###

TGT: Fibroblast growth factor receptor 3 (Homo sapiens, UniProt P22607)
Sequence (P22607 whole entry): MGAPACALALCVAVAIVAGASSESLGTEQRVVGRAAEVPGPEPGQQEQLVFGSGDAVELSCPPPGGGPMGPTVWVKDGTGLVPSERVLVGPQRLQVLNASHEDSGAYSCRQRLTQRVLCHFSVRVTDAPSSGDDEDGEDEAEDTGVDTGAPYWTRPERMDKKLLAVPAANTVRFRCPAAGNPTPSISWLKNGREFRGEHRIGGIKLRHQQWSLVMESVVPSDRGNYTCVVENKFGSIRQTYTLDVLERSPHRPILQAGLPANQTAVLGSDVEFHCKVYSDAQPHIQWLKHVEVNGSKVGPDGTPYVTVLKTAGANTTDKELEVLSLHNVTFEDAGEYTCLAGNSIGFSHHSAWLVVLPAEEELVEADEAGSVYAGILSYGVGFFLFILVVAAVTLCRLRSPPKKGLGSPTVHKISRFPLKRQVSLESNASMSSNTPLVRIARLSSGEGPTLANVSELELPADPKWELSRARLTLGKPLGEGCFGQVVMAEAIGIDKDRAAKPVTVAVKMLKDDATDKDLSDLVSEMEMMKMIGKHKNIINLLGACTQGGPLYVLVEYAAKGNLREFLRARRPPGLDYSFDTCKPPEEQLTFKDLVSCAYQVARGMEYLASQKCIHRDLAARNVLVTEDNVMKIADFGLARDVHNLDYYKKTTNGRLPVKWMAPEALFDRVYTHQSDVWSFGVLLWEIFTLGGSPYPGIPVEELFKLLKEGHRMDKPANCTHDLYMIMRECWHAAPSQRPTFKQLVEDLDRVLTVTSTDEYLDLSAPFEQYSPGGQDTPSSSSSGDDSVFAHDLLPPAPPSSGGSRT
ASSAY_SUMMARY: Inhibition of recombinant FGFR3 (unknown origin) using poly (Glu, Tyr) 4:1 as substrate after 60 mins by ELISA based spectrophotometric method
VALUE_KIND: IC50 (µM)
The figure you give is taken to be in µM; do not add the unit.

-- ask Report IC50, nothing else, for this compound: CNC(=O)c1cccc2cc(Oc3ccnc(NC(=O)c4ccc(N5CCN(C)CC5)cc4)c3)ccc12
-- reply 0.0106

###

TGT: Fibroblast growth factor receptor 1 (Homo sapiens)
Sequence (P11362 whole entry): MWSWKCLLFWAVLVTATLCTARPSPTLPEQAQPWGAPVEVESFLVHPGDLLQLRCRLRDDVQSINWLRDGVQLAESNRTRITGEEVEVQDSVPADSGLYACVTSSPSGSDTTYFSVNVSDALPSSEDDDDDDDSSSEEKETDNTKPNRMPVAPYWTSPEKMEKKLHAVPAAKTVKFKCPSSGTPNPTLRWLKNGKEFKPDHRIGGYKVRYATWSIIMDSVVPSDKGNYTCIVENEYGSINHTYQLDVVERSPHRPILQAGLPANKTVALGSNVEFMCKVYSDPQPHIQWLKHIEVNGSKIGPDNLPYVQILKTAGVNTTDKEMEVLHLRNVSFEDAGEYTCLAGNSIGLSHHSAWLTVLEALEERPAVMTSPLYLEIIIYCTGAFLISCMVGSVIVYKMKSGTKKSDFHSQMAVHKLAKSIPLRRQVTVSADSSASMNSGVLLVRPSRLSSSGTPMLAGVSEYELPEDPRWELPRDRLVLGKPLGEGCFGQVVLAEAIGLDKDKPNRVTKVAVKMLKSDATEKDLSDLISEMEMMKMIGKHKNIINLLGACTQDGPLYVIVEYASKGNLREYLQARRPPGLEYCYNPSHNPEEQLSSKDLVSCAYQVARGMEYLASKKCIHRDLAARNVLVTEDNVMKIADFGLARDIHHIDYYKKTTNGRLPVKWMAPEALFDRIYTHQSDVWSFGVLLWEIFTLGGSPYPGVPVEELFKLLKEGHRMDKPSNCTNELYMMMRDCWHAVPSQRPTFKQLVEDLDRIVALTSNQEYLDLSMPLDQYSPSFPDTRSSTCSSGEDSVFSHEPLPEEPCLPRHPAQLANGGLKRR
ASSAY_SUMMARY: Inhibition of recombinant FGFR1 (unknown origin) using poly (Glu, Tyr) 4:1 as substrate after 60 mins by ELISA based spectrophotometric method
VALUE_KIND: IC50 (nM)
The figure you give is taken to be in nM; do not add the unit.

A selection of reference data follows.
• CCNC(=O)N1CCCc2cc(Oc3ccnc(NC(=O)c4ccc(N5C[C@@H](C)N[C@@H](C)C5)cc4)c3)ccc21 = 132
• CNC(=O)c1cccc2cc(Oc3ccnc(NC(=O)c4ccc(OCC5(N)CC5)cc4)c3)ccc12 = 7.4
• CNC(=O)c1cccc2cc(Oc3ccnc(NC(=O)c4ccc(N5CCNC(C)C5)cc4)c3)ccc12 (stereo not drawn) = 2
• CNC(=O)c1cccc2cc(Oc3ccnc(NC(=O)c4ccc(N5C[C@@H](C)N[C@@H](C)C5)cc4OC)c3)ccc12 = 285
• CNC(=O)c1cccc2cc(Oc3ccnc(NC(=O)c4ccc(N5C[C@@H](C)N[C@@H](C)C5)cc4C)c3)ccc12 = 12.9

Pending compound:
-- ask Report IC50, nothing else, for this compound: CNC(=O)c1cccc2cc(Oc3ccnc(NC(=O)c4ccc(C5CCN(CCO)CC5)cc4)c3)ccc12
-- reply 1.2

###

ASSAY_SUMMARY: AUCinfinity in Sprague-Dawley rat at 3 mg/kg, po administered via gavage by LC-MS/MS analysis
Type: ADME, organism-based
Parameters: dose 3 mg/kg, time infinity, route oral
RUN_PARAMETERS: in vivo
VALUE_KIND: AUC(0-inf) (ng·h/mL)
The figure you give is taken to be in ng·h/mL; do not add the unit.

-- ask Report AUC(0-inf), nothing else, for this compound: CNC(=O)c1cccc2cc(Oc3ccnc(NC(=O)c4ccc(N5CCN(C)CC5)cc4)c3)ccc12
-- reply 22.7

###

ASSAY_SUMMARY: Volume of distribution at steady state in Sprague-Dawley rat at 1 mg/kg, iv by LC-MS/MS analysis
Format: ADME, organism-based
RUN_PARAMETERS: in vivo, read-out: Vdss
VALUE_KIND: Vd (L/kg)
The figure you give is taken to be in L/kg; do not add the unit.

-- ask Report Vd, nothing else, for this molecule: CNC(=O)c1cccc2cc(Oc3ccnc(NC(=O)c4ccc(N5CCN(C)CC5)cc4)c3)ccc12
-- reply 16.7
